system: PC-3; assay: Antiproliferative activity against human PC3 cells assessed as inhibition of cell growth after 72 hrs by MTT assay; assay type: functional, cell-based; settings: PC-3, 72 h
MEASUREMENT_KIND: pIC50
Reminder that pIC50 means the negative base-10 logarithm of the concentration expressed in mol/L.

substance_smiles=COc1cc(/C=C/C(=O)/C=C(O)/C=C/c2ccc(OC(=O)[C@@H](N)CCC(N)=O)c(OC)c2)ccc1OC(=O)[C@@H](N)CCC(N)=O.Cl.Cl target_or_system=PC-3 recorded_value=4.46
substance_smiles=COc1cc(/C=C/C(=O)/C=C(O)/C=C/c2ccc(OC(=O)[C@@H](N)Cc3ccccc3)c(OC)c2)ccc1OC(=O)[C@@H](N)Cc1ccccc1.Cl.Cl target_or_system=PC-3 recorded_value=4.13

Okay, next one:
[Q] Given COc1cc(/C=C/C(=O)/C=C(O)/C=C/c2ccc(OC(=O)[C@@H](C)N)c(OC)c2)ccc1OC(=O)[C@@H](C)N.Cl.Cl , state its recorded pIC50.
[A] 4.51
